These measurements were taken from PubChem BioAssay (NCATS).

assayed_target: Rap guanine nucleotide exchange factor 3 (Homo sapiens) (UniProt O95398)
Sequence (O95398 whole entry, looked up): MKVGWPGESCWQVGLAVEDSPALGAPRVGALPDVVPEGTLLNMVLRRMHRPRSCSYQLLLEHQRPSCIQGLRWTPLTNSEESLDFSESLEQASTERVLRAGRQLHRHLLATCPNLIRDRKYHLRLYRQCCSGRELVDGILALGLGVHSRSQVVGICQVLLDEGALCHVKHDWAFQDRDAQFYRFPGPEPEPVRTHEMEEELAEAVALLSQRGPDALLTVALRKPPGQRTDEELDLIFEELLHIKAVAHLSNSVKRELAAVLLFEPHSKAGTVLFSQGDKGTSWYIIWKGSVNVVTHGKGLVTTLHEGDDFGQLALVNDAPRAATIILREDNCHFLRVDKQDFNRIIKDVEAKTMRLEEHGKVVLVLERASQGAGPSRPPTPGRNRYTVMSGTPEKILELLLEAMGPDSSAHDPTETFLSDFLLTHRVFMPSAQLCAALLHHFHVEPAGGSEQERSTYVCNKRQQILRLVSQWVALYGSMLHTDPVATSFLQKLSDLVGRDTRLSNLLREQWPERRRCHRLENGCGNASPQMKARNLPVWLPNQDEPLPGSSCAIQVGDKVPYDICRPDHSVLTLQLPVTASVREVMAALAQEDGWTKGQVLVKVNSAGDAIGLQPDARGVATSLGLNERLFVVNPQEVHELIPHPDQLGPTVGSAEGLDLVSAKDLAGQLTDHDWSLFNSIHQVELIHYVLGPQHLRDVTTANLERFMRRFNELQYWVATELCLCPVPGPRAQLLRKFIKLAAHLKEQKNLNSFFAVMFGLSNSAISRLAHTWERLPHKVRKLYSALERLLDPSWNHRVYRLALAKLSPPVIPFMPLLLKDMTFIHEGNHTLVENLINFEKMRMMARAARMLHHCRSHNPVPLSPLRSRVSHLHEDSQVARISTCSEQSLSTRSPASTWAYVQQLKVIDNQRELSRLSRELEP
run_description: Confirmatory qHTS for agonist of cAMP-regulated guanine nucleotide exchange factor 3 (EPAC1) (AID 1645881); further: nearly all actives have a fitted effect of over 75% in size;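 on activation: EPAC1 catalysed release of BODIPY-GDP from Rap1B seen as fluorescence loss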
test_parameters: EPAC1 Rap1B BODIPY-GDP exchange fluorescence; series mostly up to 154 µM
Inconclusive results are not listed. Active and inactive are the calls of the source. The call rests on the fitted dose curve; in most records, active means well fitted activation curve with a large enough effect; inconclusive means small, poorly fitted or top-dose-only effect; inactive means no such curve, though single readings can be large or run the other way.
Please reply with one of these outcomes: y (active), n (inactive)

| compound | label |
| --- | --- |
| Cc1cc(-c2ccc(/C=N/n3cnnc3)o2)ccc1Cl | n |

Enquiry: What is the recorded call for this compound in the test? Cc1ccc(NC(=O)N2CC3CCCN3c3ccccc32)cc1Cl (stereo not given)
Return: n

Enquiry: What is the recorded call for this compound in the test? CCOC(=O)/C(C#N)=C\c1ccc(N2CCN(C/C=C/c3ccccc3)CC2)cc1
Return: y

Enquiry: What is the recorded call for this compound in the test? c1ccc(-c2onc(-c3ccco3)c2-c2ccc3[nH]ccc3c2)cc1
Return: n

Enquiry: What is the recorded call for this compound in the test? O=C(COc1ccccc1/C=C\c1[nH]c(=O)[nH]c(=O)c1[N+](=O)[O-])Nc1ccccc1
Return: n
